# Ki listing for each entry below
- target.system: Neuropeptide Y receptor type 1 (Homo sapiens, UniProt P25929)
- Sequence (P25929 whole entry): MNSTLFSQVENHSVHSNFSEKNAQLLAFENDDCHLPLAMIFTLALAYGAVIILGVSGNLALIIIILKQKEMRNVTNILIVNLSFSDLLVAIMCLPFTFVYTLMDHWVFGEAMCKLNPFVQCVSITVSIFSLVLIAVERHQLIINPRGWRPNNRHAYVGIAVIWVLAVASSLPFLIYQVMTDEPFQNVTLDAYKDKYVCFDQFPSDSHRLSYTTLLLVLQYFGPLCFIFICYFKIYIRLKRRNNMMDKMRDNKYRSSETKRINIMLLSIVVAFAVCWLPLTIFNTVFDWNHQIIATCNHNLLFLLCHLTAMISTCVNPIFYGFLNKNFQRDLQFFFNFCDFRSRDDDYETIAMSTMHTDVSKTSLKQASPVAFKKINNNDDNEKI
- assay.comment: Displacement of [3H]UR-MK299 from human Y1R expressed in SK-N-MC cells
- Type: cell-based
- condition.notes: read-out: pKi (converted)
Starred links: 1 amine or outer side, 2 acyl side, 3 side chain; linkers in the order of their positions; H or OH if unused. Positions of bridges follow the written chain, without caps; N, C: chain ends. Non-standard residues stand in square brackets, D forms with d. Residues, ends and D or L forms follow the SMILES beside them. *: point of attachment. Arg(Nω-CO) = N/C(=N\C(=O)[*:3])NCCC[C@H](N[*:1])C(=O)[*:2]; Ethylenediamine = C(CN[*:2])N[*:1]; Propionyl = CCC(=O)*

Consider the reported Ki for these compounds:
>>> recorded_value("CCC(=O)N[C@@H]1CC(=O)NCCCCNC(=O)/N=C(\\N)NCCC[C@@H](C(=O)N[C@@H](CC(C)C)C(=O)N[C@@H](CCCNC(=N)N)C(=O)N[C@@H](Cc2ccc(O)cc2)C(N)=O)NC(=O)[C@H](Cc2ccc(O)cc2)NC(=O)[C@H](CCCNC(=N)N)NC1=O")
"> 1 µM"
>>> recorded_value("CCC(=O)N[C@H]1CCC(=O)NCCNC(=O)/N=C(\\N)NCCC[C@@H](C(=O)N[C@@H](CC(C)C)C(=O)N[C@@H](CCCNC(=N)N)C(=O)N[C@@H](Cc2ccc(O)cc2)C(N)=O)NC(=O)[C@H](Cc2ccc(O)cc2)NC(=O)[C@H](CCCNC(=N)N)NC1=O (Propionyl-ERY[Arg(Nω-CO)]LRY-NH2; linker 1-4 via Ethylenediamine)")
"> 1 µM"
>>> recorded_value("CC(C)C[C@H](NC(=O)[C@@H]1CCCN/C(N)=N/C(=O)NCCCCNC(=O)C[C@H](N)C(=O)N[C@@H](CCCNC(=N)N)C(=O)N[C@@H](Cc2ccc(O)cc2)C(=O)N1)C(=O)N[C@@H](CCCNC(=N)N)C(=O)N[C@@H](Cc1ccc(O)cc1)C(N)=O")
"> 3.16 µM"
>>> recorded_value("CC(C)C[C@H](NC(=O)[C@@H]1CCCN/C(N)=N/C(=O)NCCCCNC(=O)[C@@H](N)CC(=O)N[C@@H](CCCNC(=N)N)C(=O)N[C@@H](Cc2ccc(O)cc2)C(=O)N1)C(=O)N[C@@H](CCCNC(=N)N)C(=O)N[C@@H](Cc1ccc(O)cc1)C(N)=O")
"> 1 µM"

The record that follows has no Ki shown yet.
Any idea what Ki was measured for CC(C)C[C@H](NC(=O)[C@@H]1CCCN/C(N)=N/C(=O)NCCCCNC(=O)[C@H](N)CC(=O)N[C@@H](CCCNC(=N)N)C(=O)N[C@@H](Cc2ccc(O)cc2)C(=O)N1)C(=O)N[C@@H](CCCNC(=N)N)C(=O)N[C@@H](Cc1ccc(O)cc1)C(N)=O ? > 1 µM

---

- target.system: Neuropeptide Y receptor type 4 (Homo sapiens)
- Sequence (P50391 whole entry): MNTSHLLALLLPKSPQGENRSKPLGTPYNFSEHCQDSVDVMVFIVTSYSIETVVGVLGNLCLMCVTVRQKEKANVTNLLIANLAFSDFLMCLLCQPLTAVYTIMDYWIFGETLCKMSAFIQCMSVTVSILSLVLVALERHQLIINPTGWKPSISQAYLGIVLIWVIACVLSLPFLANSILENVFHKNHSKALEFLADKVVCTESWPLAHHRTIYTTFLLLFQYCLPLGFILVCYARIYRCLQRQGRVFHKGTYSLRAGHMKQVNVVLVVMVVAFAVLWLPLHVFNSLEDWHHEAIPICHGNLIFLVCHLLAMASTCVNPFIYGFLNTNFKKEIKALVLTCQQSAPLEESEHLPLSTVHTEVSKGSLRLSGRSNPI
- assay.comment: Displacement of [3H]-(9S,12S,15S,19R,E)-4-amino-N-((S)-1-(((S)-1-(((S)-1-amino-3-(4-hydroxyphenyl)-1-oxopropan-2-yl)amino)-5-guanidino-1-oxopentan-2-yl)amino)-4-methyl-1-oxopentan-2-yl)-15-(3-guanidinopropyl)-12-(4-hydroxybenzyl)-2,11,14,17,20-pentaoxo-19-(4-(propanamido-2,3-t2)butanamido)-1,3,5,10,13,16,21-heptaazacyclopentacos-3-ene-9-carboxamide from human Y4R expressed in CHO cells coexpressing Gqi5-mtAEQ under isotonic sodium containing buffer condition
- Format: cell-based
- condition.notes: read-out: Ki
test.readout: pKi
Convention used: pKi is expressed as -log10 of the molar concentration.

Any idea what pKi was measured for [3H]CC([3H])C(=O)N[C@H](CCCC[C@@H](N)C(=O)N[C@@H](Cc1ccc(O)cc1)C(=O)N[C@@H](CCCNC(=N)N)C(=O)N[C@@H](CC(C)C)C(=O)N[C@@H](CCCNC(=N)N)C(=O)N[C@@H](Cc1ccc(O)cc1)C(N)=O)C(=O)N[C@@H](Cc1ccc(O)cc1)C(=O)N[C@@H](CCCNC(=N)N)C(=O)N[C@@H](CC(C)C)C(=O)N[C@@H](CCCNC(=N)N)C(=O)N[C@@H](Cc1ccc(O)cc1)C(N)=O (stereo partly specified) ? 7.96
